# tested target: T1, monkey GPC3-His protein (monkey)
# T1 construct: Bought protein; also called monkey GPC3 protein
# experimental details: ELISA, monkey GPC3-His coated; antibody 0.02 nM
measured quantity: OD450 nm

>  <binder>
hAb006LH3L1b (antibody, human IgG1, V domains shown, Humanized F3.38.7, H3+L1b) VH: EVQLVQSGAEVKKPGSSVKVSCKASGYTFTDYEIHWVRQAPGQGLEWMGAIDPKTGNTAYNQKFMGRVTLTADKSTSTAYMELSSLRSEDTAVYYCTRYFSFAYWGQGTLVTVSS VL: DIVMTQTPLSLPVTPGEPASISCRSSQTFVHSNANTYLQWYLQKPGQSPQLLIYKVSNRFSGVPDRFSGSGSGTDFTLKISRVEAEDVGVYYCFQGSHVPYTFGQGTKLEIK

>  <measured quantity>
OD450 nm

>  <recorded result>
1.01

$$$$
>  <binder>
hAb001H1aL1 (antibody, human IgG1, V domains shown, Humanized F2.169.2, H1a+L1) VH: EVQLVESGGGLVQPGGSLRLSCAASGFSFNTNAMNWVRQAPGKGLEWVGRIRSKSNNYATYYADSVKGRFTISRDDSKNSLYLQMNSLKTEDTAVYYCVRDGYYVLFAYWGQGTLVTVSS VL: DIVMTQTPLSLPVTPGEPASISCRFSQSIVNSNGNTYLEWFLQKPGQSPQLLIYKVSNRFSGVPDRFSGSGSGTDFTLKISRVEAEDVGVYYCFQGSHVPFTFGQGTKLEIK

>  <measured quantity>
OD450 nm

>  <recorded result>
1.03

$$$$
>  <binder>
hAb001H1aL1b (antibody, human IgG1, V domains shown, Humanized F2.169.2, H1a+L1b) VH: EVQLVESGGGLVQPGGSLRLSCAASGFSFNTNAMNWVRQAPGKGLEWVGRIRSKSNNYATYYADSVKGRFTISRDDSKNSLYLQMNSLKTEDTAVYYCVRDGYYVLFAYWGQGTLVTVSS VL: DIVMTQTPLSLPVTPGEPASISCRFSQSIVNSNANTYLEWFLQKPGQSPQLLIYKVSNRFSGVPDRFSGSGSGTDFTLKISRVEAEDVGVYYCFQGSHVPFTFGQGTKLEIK

>  <measured quantity>
OD450 nm

>  <recorded result>
1.02

$$$$
>  <binder>
hAb001H1L1 (antibody, human IgG1, V domains shown, Humanized F2.169.2, H1+L1) VH: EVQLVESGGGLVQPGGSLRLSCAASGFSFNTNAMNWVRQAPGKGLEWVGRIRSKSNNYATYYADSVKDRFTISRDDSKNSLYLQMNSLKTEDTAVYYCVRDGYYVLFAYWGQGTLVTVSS VL: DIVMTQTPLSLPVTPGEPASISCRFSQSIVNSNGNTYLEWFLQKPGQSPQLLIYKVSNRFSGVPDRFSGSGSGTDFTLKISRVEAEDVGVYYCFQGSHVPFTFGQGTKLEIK

>  <measured quantity>
OD450 nm

>  <recorded result>
1.08

$$$$
>  <binder>
hAb005LH1L1b (antibody, human IgG1, V domains shown, Humanized F3.54.12, H1+L1b) VH: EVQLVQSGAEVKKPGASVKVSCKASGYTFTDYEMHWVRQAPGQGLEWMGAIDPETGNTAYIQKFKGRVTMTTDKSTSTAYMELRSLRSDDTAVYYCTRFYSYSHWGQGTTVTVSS VL: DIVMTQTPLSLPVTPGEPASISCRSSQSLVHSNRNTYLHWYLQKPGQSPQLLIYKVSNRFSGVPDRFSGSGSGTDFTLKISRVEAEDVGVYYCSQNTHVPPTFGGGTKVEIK

>  <measured quantity>
OD450 nm

>  <recorded result>
0.664

$$$$
